This collection of values is drawn from patent US20220348652A1.

- measurement target: T1, human CD47 expressed on CHO-CD47 cells (human, UniProt Q08722 19-323)
- T1 construct: whole, on cells; also called cellular CD47; full-length CD47
- assay overview: flow cytometry, IgG on CHO-CD47 cells
The entries below are paired with their reported EC50.
Write it as a number; the unit µg/mL goes unstated.

Answered examples (4):
Antibody R23 (antibody, from another filing, V domains shown) VH: QVQLQESGPGLVKPSETLSLTCTVSGGSIEHYYWSWIRQPPGKGLEWIGYIYYSGSTNYNPSLKSRVTISVDTSKNQFSLKLSSVTAADTAVYYCARGKTGSAAWGQGTLVTVSS VL: DIQMTQSPSSVSASVGDRVTITCRASQGISRWLAWYQQKPGKAPKLLIYAASSLQSGVPSRFSGSGSGTDFTLTISSLQPEDFATYYCQQTVSFPITFGGGTKVEIKR: 4.18
CD47-30 IgG (antibody, V domains shown, IgG made in CHO cells; constant domains as for m19; also called antibody CD47-30) VH: EVQLVESGGGLVQPGGSLRLSCAASGFTINNWWIHWVRQAPGKGLEWVAWIDPFNGDSDYADSVKGRFTISADTSKNTAYLQMNSLRAEDTAVYYCARGGFALDHWGQGTLVTVSS VL: DIQMTQSPSSLSASVGDRVTITCRASQDVSHYVAWYQQKPGKAPKLLIYSTSRLYPGVPSRFSGSGSGTDFTLTISSLQPEDFATYYCQQHSSYPITFGQGTKVEIKR: 2.67
CD47-26 IgG (antibody, V domains shown, IgG made in CHO cells; constant domains as for m19; also called antibody CD47-26) VH: EVQLVESGGGLVQPGGSLRLSCAASGFTITNFYIHWVRQAPGKGLEWVAKITPYNGDTHYADSVKGRFTISADTSKNTAYLQMNSLRAEDTAVYYCTRGGYAMDYWGQGTLVTVSS VL: DIQMTQSPSSLSASVGDRVTITCRASQDVSNYVAWYQQKPGKAPKLLIYGTSRLYPGVPSRFSGSGSGTDFTLTISSLQPEDFATYYCQQHSSYPLTFGQGTKVEIKR: 2.05
CD47-7 IgG (antibody, V domains shown, IgG made in CHO cells; constant domains as for m19; also called antibody CD47-7) VH: EVQLVESGGGLVQPGGSLRLSCAASGFTITNYYIHWVRQAPGKGLEWVASIWPGYGNTGYADSVKGRFTISADTSKNTAYLQMNSLRAEDTAVYYCARGGYSMDFWGQGTLVTVSS VL: DIQMTQSPSSLSASVGDRVTITCRASQDVYTRVAWYQQKPGKAPKLLIYYTRNLYSGVPSRFSGSGSGTDFTLTISSLQPEDFATYYCQQAANYPLTFGQGTKVEIKR: 2.44

Turning now to a further record.
Query: Record request: EC50 value, item CD47-2 IgG (antibody, V domains shown, IgG made in CHO cells from the scFv; The VL-CL junction was not checked (VL ends in ...EIKR); also called antibody CD47-2) VH: EVQLVESGGGLVQPGGSLRLSCAASGFTISNSFIHWVRQAPGKGLEWVAYIWPWSGSTGYADSVKGRFTISADTSKNTAYLQMNSLRAEDTAVYYCARGGFSMDHWGQGTLVTVSS VL: DIQMTQSPSSLSASVGDRVTITCRASQDVSSKVAWYQQKPGKAPKLLIYGTNRLYPGVPSRFSGSGSGTDFTLTISSLQPEDFATYYCQQSSNYPLTFGQGTKVEIKR
Reply: 2.34
